# System: MCF7
# RUN DESCRIPTION: percentage of EdU-negative (G0-arrested) nuclei per well, 72 h; higher = more G0 arrest;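 also: secreted proteins added to cultured cells, EdU pulse at the end, nuclei found by Hoechst imaging, EdU status from nuclear versus surrounding ring intensity ratio, PBS as neutral control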
# CONDITION DETAILS: protein concentration 0.225 µM; reference: sequence is the full UniProt precursor, the tested protein was the secreted form or ectodomain
Can you tell me percentage of EdU-negative for the items I'm about to list?
Please respond with the number in % and leave the unit unwritten.

Exercise: Suppose we examine the sequence MAGGRHRRVVGTLHLLLLVAALPWASRGVSPSASAWPEEKNYHQPAILNSSALRQIAEGTSISEMWQNDLQPLLIERYPGSPGSYAARQHIMQRIQRLQADWVLEIDTFLSQTPYGYRSFSNIISTLNPTAKRHLVLACHYDSKYFSHWNNRVFVGATDSAVPCAMMLELARALDKKLLSLKTVSDSKPDLSLQLIFFDGEEAFLHWSPQDSLYGSRHLAAKMASTPHPPGARGTSQLHGMDLLVLLDLIGAPNPTFPNFFPNSARWFERLQAIEHELHELGLLKDHSLEGRYFQNYSYGGVIQDDHIPFLRRGVPVLHLIPSPFPEVWHTMDDNEENLDESTIDNLNKILQVFVLEYLHL ; what percentage of EdU-negative value has been reported?
Key: 29.9

Exercise: Suppose we examine the sequence MRSLGALLLLLSACLAVSAGPVPTPPDNIQVQENFNISRIYGKWYNLAIGSTCPWLKKIMDRMTVSTLVLGEGATEAEISMTSTRWRKGVCEETSGAYEKTDTDGKFLYHKSKWNITMESYVVHTNYDEYAIFLTKKFSRHHGPTITAKLYGRAPQLRETLLQDFRVVAQGVGIPEDSIFTMADRGECVPGEQEPEPILIPRVRRAVLPQEEEGSGGGQLVTEVTKKEDSCQLGYSAGPCMGMTSRYFYNGTSMACETFQYGGCMGNGNNFVTEKECLQTCRTVAACNLPIVRGPCRAFIQLWAFDAVKGKCVLFPYGGCQGNGNKFYSEKECREYCGVPGDGDEELLRFSN ; what percentage of EdU-negative value has been reported?
Key: 25.2

----------
Can you tell me percentage of EdU-negative for the items I'm about to list?
# Test system: MCF7
# RUN DESCRIPTION: percentage of EdU-negative (G0-arrested) nuclei per well, 72 h; higher = more G0 arrest
# CONDITION DETAILS: protein concentration 0.225 µM; reference: sequence is the full UniProt precursor, the tested protein was the secreted form or ectodomain
Please respond with the number in % and leave the unit unwritten.

Exercise: Suppose we examine the sequence MAWPLCTLLLLLATQAVALAWSPQEEDRIIEGGIYDADLNDERVQRALHFVISEYNKATEDEYYRRLLRVLRAREQIVGGVNYFFDIEVGRTICTKSQPNLDTCAFHEQPELQKKQLCSFQIYEVPWEDRMSLVNSRCQEA ; what percentage of EdU-negative value has been reported?
Key: 24

Exercise: Suppose we examine the sequence MTTQLRVVHLLPLLLACFVQTSPKQEKMKMDCHKDEKGTIYDYEAIALNKNEYVSFKQYVGKHILFVNVATYCGLTAQYPELNALQEELKPYGLVVLGFPCNQFGKQEPGDNKEILPGLKYVRPGGGFVPSFQLFEKGDVNGEKEQKVFSFLKHSCPHPSEILGTFKSISWDPVKVHDIRWNFEKFLVGPDGIPVMRWSHRATVSSVKTDILAYLKQFKTK ; what percentage of EdU-negative value has been reported?
Key: 27.7

----------
# Tested on: hTERT-HMEC
# RUN DESCRIPTION: percentage of EdU-negative (G0-arrested) nuclei per well, 72 h; higher = more G0 arrest
# CONDITION DETAILS: protein concentration 0.0357143 µM; reference: sequence is the full UniProt precursor, the tested protein was the secreted form or ectodomain
TEST READOUT: percentage of EdU-negative (%)
Please respond with the number in % and leave the unit unwritten.

Exercise: Suppose we examine the sequence MKVSVAALSCLMLVAVLGSQAQFTNDAETELMMSKLPLENPVVLNSFHFAADCCTSYISQSIPCSLMKSYFETSSECSKPGVIFLTKKGRQVCAKPSGPGVQDCMKKLKPYSI ; what percentage of EdU-negative value has been reported?
Key: 4.77

Exercise: Suppose we examine the sequence MAAAWTVVLVTLVLGLAVAGPVPTSKPTTTGKGCHIGRFKSLSPQELASFKKARDALEESLKLKNWSCSSPVFPGNWDLRLLQVRERPVALEAELALTLKVLEAAAGPALEDVLDQPLHTLHHILSQLQACIQPQPTAGPRPRGRLHHWLHRLQEAPKKESAGCLEASVTFNLFRLLTRDLKYVADGNLCLRTSTHPEST [Q8IU54] ; what percentage of EdU-negative value has been reported?
Key: 7.03

Exercise: Suppose we examine the sequence MARILLLFLPGLVAVCAVHGIFMDRLASKKLCADDECVYTISLASAQEDYNAPDCRFINVKKGQQIYVYSKLVKENGAGEFWAGSVYGDGQDEMGVVGYFPRNLVKEQRVYQEATKEVPTTDIDFFCE [Q9NRC9] ; what percentage of EdU-negative value has been reported?
Key: 5.05

Exercise: Suppose we examine the sequence MLCLLLTLGVALVCGVPAMDIPQTKQDLELPKLAGTWHSMAMATNNISLMATLKAPLRVHITSLLPTPEDNLEIVLHRWENNSCVEKKVLGEKTENPKKFKINYTVANEATLLDTDYDNFLFLCLQDTTTPIQSMMCQYLARVLVEDDEIMQGFIRAFRPLPRHLWYLLDLKQMEEPCRF ; what percentage of EdU-negative value has been reported?
Key: 5.01

Exercise: Suppose we examine the sequence MWLLVSVILISRISSVGGEAMFCDFPKINHGILYDEEKYKPFSQVPTGEVFYYSCEYNFVSPSKSFWTRITCAEEGWSPTPKCLRLCFFPFVENGHSESSGQTHLEGDTVQIICNTGYRLQNNENNISCVERGWSTPPKCRSTISAEKCGPPPPIDNGDITSFLLSVYAPGSSVEYQCQNLYQLEGNNQITCRNGQWSEPPKCLDPCVISQEIMEKYNIKLKWTNQQKLYSRTGDIVEFVCKSGYHPTKSHSFRAMCQNGKLVYPSCEEK ; what percentage of EdU-negative value has been reported?
Key: 5.7

Exercise: Suppose we examine the sequence MGKSASKQFHNEVLKAHNEYRQKHGVPPLKLCKNLNREAQQYSEALASTRILKHSPESSRGQCGENLAWASYDQTGKEVADRWYSEIKNYNFQQPGFTSGTGHFTAMVWKNTKKMGVGKASASDGSSFVVARYFPAGNVVNEGFFEENVLPPKK [Q9H4G4] ; what percentage of EdU-negative value has been reported?
Key: 4.55

Exercise: Suppose we examine the sequence MLGIWTLLPLVLTSVARLSSKSVNAQVTDINSKGLELRKTVTTVETQNLEGLHHDGQFCHKPCPPGERKARDCTVNGDEPDCVPCQEGKEYTDKAHFSSKCRRCRLCDEGHGLEVEINCTRTQNTKCRCKPNFFCNSTVCEHCDPCTKCEHGIIKECTLTSNTKCKEEGSRSNLGWLCLLLLPIPLIVWVKRKEVQKTCRKHRKENQGSHESPTLNPETVAINLSDVDLSKYITTIAGVMTLSQVKGFVRKNGVNEAKIDEIKNDNVQDTAEQKVQLLRNWHQLHGKKEAYDTLIKDLKKANLCTLAEKIQTIILKDITSDSENSNFRNEIQSLV ; what percentage of EdU-negative value has been reported?
Key: 5.07

Exercise: Suppose we examine the sequence MCLSHLENMPLSHSRTQGAQRSSWKLWLFCSIVMLLFLCSFSWLIFIFLQLETAKEPCMAKFGPLPSKWQMASSEPPCVNKVSDWKLEILQNGLYLIYGQVAPNANYNDVAPFEVRLYKNKDMIQTLTNKSKIQNVGGTYELHVGDTIDLIFNSEHQVLKNNTYWGIILLANPQFIS [Q9UNG2] ; what percentage of EdU-negative value has been reported?
Key: 5.8

Exercise: Suppose we examine the sequence MERLVIRMPFSHLSTYSLVWVMAAVVLCTAQVQVVTQDEREQLYTPASLKCSLQNAQEALIVTWQKKKAVSPENMVTFSENHGVVIQPAYKDKINITQLGLQNSTITFWNITLEDEGCYMCLFNTFGFGKISGTACLTVYVQPIVSLHYKFSEDHLNITCSATARPAPMVFWKVPRSGIENSTVTLSHPNGTTSVTSILHIKDPKNQVGKEVICQVLHLGTVTDFKQTVNKGYWFSVPLLLSIVSLVILLVLISILLYWKRHRNQDRGELSQGVQKMT ; what percentage of EdU-negative value has been reported?
Key: 5.34

----------
# Test system: MCF7
# RUN DESCRIPTION: percentage of EdU-negative (G0-arrested) nuclei per well, 72 h; higher = more G0 arrest
# CONDITION DETAILS: protein concentration 0.0225 µM; reference: sequence is the full UniProt precursor, the tested protein was the secreted form or ectodomain
TEST READOUT: percentage of EdU-negative (%)
Please respond with the number in % and leave the unit unwritten.

Exercise: Suppose we examine the sequence MKWMVVVLVCLQLLEAAVVKVPLKKFKSIRETMKEKGLLGEFLRTHKYDPAWKYRFGDLSVTYEPMAYMDAAYFGEISIGTPPQNFLVLFDTGSSNLWVPSVYCQSQACTSHSRFNPSESSTYSTNGQTFSLQYGSGSLTGFFGYDTLTVQSIQVPNQEFGLSENEPGTNFVYAQFDGIMGLAYPALSVDEATTAMQGMVQEGALTSPVFSVYLSNQQGSSGGAVVFGGVDSSLYTGQIYWAPVTQELYWQIGIEEFLIGGQASGWCSEGCQAIVDTGTSLLTVPQQYMSALLQATGAQEDEYGQFLVNCNSIQNLPSLTFIINGVEFPLPPSSYILSNNGYCTVGVEPTYLSSQNGQPLWILGDVFLRSYYSVYDLGNNRVGFATAA ; what percentage of EdU-negative value has been reported?
Key: 24.4

Exercise: Suppose we examine the sequence MEKILILLLVALSVAYAAPGPRGIIINLENGELCMNSAQCKSNCCQHSSALGLARCTSMASENSECSVKTLYGIYYKCPCERGLTCEGDKTIVGSITNTNFGICHDAGRSKQ ; what percentage of EdU-negative value has been reported?
Key: 23.9
